Documented IC50 across a set of molecules
Molecular target: full-length beta-Catenin (Uniprot ID P35222) (Homo sapiens, UniProt P35222)
Construct: 10 nM full-length beta-Catenin (Uniprot ID P35222)
Test: Fluorescence polarization IC50 (beta-catenin / 5FAM-TCF4 10-53 competition)
Format: binding
Conditions: fluorescence polarization; read-out: beta-Catenin FP IC50
readout-label: IC50 (nM)

• CC(=O)N1CCC[C@]12CC=CCCCC1(CCCC=CCCCOC(=O)N3CC[C@@](C(=O)N[C@@H](Cc4ccsc4)C(=O)N[C@@H](Cc4cccc5ccccc45)C(=O)N[C@@H](CCC(N)=O)C(N)=O)(C3)NC(=O)[C@H](CC(N)=O)NC(=O)[C@H](Cc3ccccc3)NC(=O)[C@H](C)NC(=O)[C@H](C)NC(=O)[C@H]([C@@H](C)O)NC(=O)[C@H](CC(N)=O)NC1=O)NC(=O)[C@H](CC(C)(C)C)NC(=O)[C@H](CC(=O)O)NC2=O (some centres unmarked) [I-1871] = 1770
• CC(=O)N1CCC[C@]12CC=CCCCC1(CCCC=CCCCOC(=O)N3CC[C@@](C(=O)N[C@@H](Cc4ccccc4)C(=O)N[C@@H](Cc4csc5ccccc45)C(=O)N[C@@H](CC(N)=O)C(N)=O)(C3)NC(=O)[C@H](CC(N)=O)NC(=O)[C@H](Cc3ccccc3)NC(=O)[C@H](C)NC(=O)[C@H](CCCCNC(C)C)NC(=O)[C@H](CCC(N)=O)NC(=O)[C@H](CC(=O)O)NC1=O)NC(=O)[C@H](CC1CCCCC1)NC(=O)[C@H](CC(N)=O)NC2=O (some centres unmarked) = 180

====

Target: full-length beta-Catenin (Uniprot ID P35222) (Homo sapiens, UniProt P35222)
Construct: 10 nM full-length beta-Catenin (Uniprot ID P35222)
Sequence (P35222 1-781): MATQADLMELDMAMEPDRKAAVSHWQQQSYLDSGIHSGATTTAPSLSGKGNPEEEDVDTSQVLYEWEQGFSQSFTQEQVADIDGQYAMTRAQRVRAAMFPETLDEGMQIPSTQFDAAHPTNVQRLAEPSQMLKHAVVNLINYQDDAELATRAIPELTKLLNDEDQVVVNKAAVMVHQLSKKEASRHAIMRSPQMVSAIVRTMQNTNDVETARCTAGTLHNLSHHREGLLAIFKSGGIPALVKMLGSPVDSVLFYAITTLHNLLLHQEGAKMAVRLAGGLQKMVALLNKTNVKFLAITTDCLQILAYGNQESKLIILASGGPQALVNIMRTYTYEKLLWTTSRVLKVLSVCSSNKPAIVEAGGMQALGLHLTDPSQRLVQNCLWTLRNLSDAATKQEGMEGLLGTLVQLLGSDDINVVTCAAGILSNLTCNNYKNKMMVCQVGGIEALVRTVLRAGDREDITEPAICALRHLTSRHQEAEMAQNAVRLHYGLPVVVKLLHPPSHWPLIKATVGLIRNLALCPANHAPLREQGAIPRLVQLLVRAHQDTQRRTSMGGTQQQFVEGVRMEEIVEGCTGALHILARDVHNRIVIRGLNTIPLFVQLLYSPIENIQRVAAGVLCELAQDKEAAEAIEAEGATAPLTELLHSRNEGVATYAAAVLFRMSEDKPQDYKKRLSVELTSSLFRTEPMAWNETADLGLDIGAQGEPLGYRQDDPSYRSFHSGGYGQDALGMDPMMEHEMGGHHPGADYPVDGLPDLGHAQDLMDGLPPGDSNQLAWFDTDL
Assay: Fluorescence polarization IC50 (beta-catenin / 5FAM-TCF4 10-53 competition)
Type: binding
Conditions: fluorescence polarization; read-out: beta-Catenin FP IC50
pIC50: −log10 of the molar value.
Documented pIC50 across a set of compounds
readout-label: pIC50

* CC(=O)N1CCC[C@]12CC=CCCCC1(CCCC=CCCCOC(=O)N3CC[C@@](C(=O)N[C@@H](Cc4ccccc4C(F)(F)F)C(=O)N[C@@H](Cc4csc5ccccc45)C(=O)N[C@@H](CCC(N)=O)C(=O)N[C@@H](CC(C)C)C(=O)NC4(C(N)=O)CCC4)(C3)NC(=O)[C@H](CC(C)C)NC(=O)[C@H](Cc3ccccc3)NC(=O)[C@H](C)NC(=O)[C@H](C)NC(=O)[C@H](Cc3cccc(C(=O)O)c3)NC(=O)[C@H](CC(=O)O)NC1=O)NC(=O)[C@H](CC(C)(C)C)NC(=O)[C@H](CC(=O)O)NC2=O (stereo partly drawn) [I-2388] | 6.88
* CC(=O)N1CCC[C@]12CC=CCCCC1(CCCC=CCCCOC(=O)N3CC[C@@](C(=O)N[C@@H](Cc4ccccc4)C(=O)N[C@@H](Cc4csc5ccccc45)C(=O)N[C@@H](CO)C(N)=O)(C3)NC(=O)[C@H]([C@@H](C)O)NC(=O)[C@H](Cc3cccc(C(F)(F)F)c3)NC(=O)[C@H](C)NC(=O)[C@H](C)NC(=O)[C@H]([C@@H](C)O)NC(=O)[C@H](CC(=O)O)NC1=O)NC(=O)[C@H](CC(C)(C)C)NC(=O)[C@H](CC(=O)O)NC2=O (stereo partly drawn) [I-1268] | 6.70
* CC(=O)N1CCC[C@]12CC=CCCCC1(CCCC=CCCCCCC[C@@](C)(C(=O)N[C@@H](Cc3ccccc3)C(=O)N[C@@H](Cc3csc4ccccc34)C(=O)N[C@@H](Cc3c[nH]cn3)C(=O)NC(C)(C)C(N)=O)NC(=O)[C@H](CC(N)=O)NC(=O)[C@H](Cc3ccccc3)NC(=O)[C@H](C)NC(=O)[C@H](C)NC(=O)[C@H](CCC(=O)O)NC(=O)[C@H](CC(=O)O)NC1=O)NC(=O)[C@H](CC(C)C)NC(=O)[C@H](CC(=O)O)NC2=O (stereo partly drawn) [I-743] | 7.07

====

Target: full-length beta-Catenin (Uniprot ID P35222) (Homo sapiens, UniProt P35222)
Construct: 10 nM full-length beta-Catenin (Uniprot ID P35222)
Assay: Fluorescence polarization IC50 (beta-catenin / 5FAM-TCF4 10-53 competition)
Assay type: binding
Settings: read-out: beta-Catenin FP IC50
readout-label: IC50

• CC(=O)N1CCC[C@]12CC=CCCCC1(CCCC=CCCCOC(=O)N3CC[C@@](C(=O)N[C@@H](Cc4ccccc4Cl)C(=O)N[C@@H](Cc4csc5ccccc45)C(=O)N[C@@H](CCC(N)=O)C(N)=O)(C3)NC(=O)[C@H](CC(N)=O)NC(=O)[C@H](Cc3ccccc3)NC(=O)[C@H](C)NC(=O)[C@H](C)NC(=O)[C@H](CC(=O)O)NC(=O)[C@H](CC(=O)O)NC1=O)NC(=O)[C@H](CC1CCCCC1)NC(=O)[C@H](CC(=O)O)NC2=O (stereo partly drawn) = 8 nM
• CC(=O)N1CCC[C@]12CC=CCCCC1(CCCC=CCCCOC(=O)N3CC[C@@](C(=O)N[C@@H](Cc4ccccc4Cl)C(=O)N[C@@H](Cc4csc5ccccc45)C(=O)N[C@@H](CCC(N)=O)C(N)=O)(C3)NC(=O)[C@H](CC(N)=O)NC(=O)[C@H](Cc3ccccc3)NC(=O)[C@H](C)NC(=O)[C@H](C)NC(=O)[C@H](CN(CC(=O)O)CC(F)(F)F)NC(=O)[C@H](CC(=O)O)NC1=O)NC(=O)[C@H](CC(C)(C)C)NC(=O)[C@H](CC(=O)O)NC2=O (stereo partly drawn) = 8 nM
• CC(=O)N1CCC[C@]12CC=CCCCC1(CCCC=CCCCOC(=O)N3CC[C@@](C(=O)N[C@@H](Cc4ccsc4)C(=O)N[C@@H](Cc4csc5ccccc45)C(=O)N[C@@H](CCC(N)=O)C(N)=O)(C3)NC(=O)[C@H](CC(C)C)NC(=O)[C@H](Cc3ccccc3)NC(=O)[C@H](C)NC(=O)[C@H](C)NC(=O)[C@H](CN(CC(=O)O)CC(F)(F)F)NC(=O)[C@H](CC(=O)O)NC1=O)NC(=O)[C@H](CC(C)(C)C)NC(=O)[C@H](CC(=O)O)NC2=O (stereo partly drawn) = 8 nM

====

Molecular target: full-length B-Catenin (Uniprot ID P35222) (Homo sapiens, UniProt P35222)
Construct: 65 nM full-length B-Catenin (Uniprot ID P35222)
Assay: Alphascreen binding assay (beta-catenin / biotin-TCF4 10-53)
readout-label: EC50 (nM)

* CC(=O)N1CCC[C@]12CC=CCCCC1(CCCC=CCCCCCC[C@@](C)(C(=O)N[C@@H](Cc3ccccc3)C(=O)N[C@@H](Cc3c[nH]c4ccccc34)C(=O)N[C@@H](CCC(N)=O)C(N)=O)NC(=O)[C@H](C(C)C)NC(=O)[C@H](Cc3cc(F)c(F)c(F)c3)NC(=O)[C@H](C)NC(=O)[C@H](C)NC(=O)[C@H](CCC(=O)O)NC(=O)[C@H](CC(=O)O)NC1=O)NC(=O)[C@H](C)NC(=O)[C@H](CC(=O)O)NC2=O (stereo partly drawn) [I-210] | 1400
* COc1ccc(C[C@@H]2NC(=O)[C@H](C)NC(=O)[C@H](C)NC(=O)[C@H](CCC(=O)O)NC(=O)[C@H](CC(=O)O)NC(=O)C3(CCCC=CCCCCCC[C@@](C)(C(=O)N[C@@H](Cc4ccccc4)C(=O)N[C@@H](Cc4c[nH]c5ccccc45)C(=O)N[C@@H](CCC(N)=O)C(N)=O)NC(=O)[C@H](C(C)C)NC2=O)CCCC=CC[C@]2(CCCN2C(C)=O)C(=O)N[C@@H](CC(=O)O)C(=O)N[C@@H](C)C(=O)N3)cc1 (stereo partly drawn) [I-218] | 90
* CC(=O)N1CCC[C@]12CC=CCCCC1(CCCC=CCCCCCC[C@@](C)(C(=O)N[C@@H](Cc3ccccc3)C(=O)N[C@@H](Cc3c[nH]c4ccccc34)C(=O)N[C@@H](CCC(N)=O)C(N)=O)NC(=O)[C@H](C(C)C)NC(=O)[C@H](Cc3ccccc3)NC(=O)[C@H](C)NC(=O)[C@H](C)NC(=O)C(Cc3cccc4cc(F)ccc34)NC(=O)[C@H](CC(=O)O)NC1=O)NC(=O)[C@H](C)NC(=O)[C@H](CC(=O)O)NC2=O (stereo partly drawn) | 9210
